Target: UniProtKB O43739
Sequence (O43739 whole entry, the tested form may be a part): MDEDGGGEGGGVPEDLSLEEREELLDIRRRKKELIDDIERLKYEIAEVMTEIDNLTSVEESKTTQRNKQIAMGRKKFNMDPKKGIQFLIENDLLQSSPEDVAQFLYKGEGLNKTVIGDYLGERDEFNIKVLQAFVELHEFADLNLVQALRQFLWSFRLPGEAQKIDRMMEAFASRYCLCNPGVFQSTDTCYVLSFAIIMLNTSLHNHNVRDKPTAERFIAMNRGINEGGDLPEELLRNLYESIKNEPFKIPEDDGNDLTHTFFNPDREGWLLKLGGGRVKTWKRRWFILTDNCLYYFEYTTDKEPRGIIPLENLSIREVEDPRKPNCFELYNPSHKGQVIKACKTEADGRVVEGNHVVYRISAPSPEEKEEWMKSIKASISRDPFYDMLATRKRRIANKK
Test: Inhibition of recombinant C-terminal 6xHis-tagged Grp1 PH domain (unknown origin) expressed in Escherichia coli BL21(DE3) RIL assessed as inhibition of interaction with PtdIns(3,4,5)P3 after 15 mins by SPR analysis

| molSmiles | IC50 |
| --- | --- |
| O=C(O)c1cc(P(=O)(O)O)n[nH]1 | 38 µM |

---

Target: Epsin-1 (Homo sapiens) (UniProt Q9Y6I3)
Sequence (Q9Y6I3 whole entry, the tested form may be a part): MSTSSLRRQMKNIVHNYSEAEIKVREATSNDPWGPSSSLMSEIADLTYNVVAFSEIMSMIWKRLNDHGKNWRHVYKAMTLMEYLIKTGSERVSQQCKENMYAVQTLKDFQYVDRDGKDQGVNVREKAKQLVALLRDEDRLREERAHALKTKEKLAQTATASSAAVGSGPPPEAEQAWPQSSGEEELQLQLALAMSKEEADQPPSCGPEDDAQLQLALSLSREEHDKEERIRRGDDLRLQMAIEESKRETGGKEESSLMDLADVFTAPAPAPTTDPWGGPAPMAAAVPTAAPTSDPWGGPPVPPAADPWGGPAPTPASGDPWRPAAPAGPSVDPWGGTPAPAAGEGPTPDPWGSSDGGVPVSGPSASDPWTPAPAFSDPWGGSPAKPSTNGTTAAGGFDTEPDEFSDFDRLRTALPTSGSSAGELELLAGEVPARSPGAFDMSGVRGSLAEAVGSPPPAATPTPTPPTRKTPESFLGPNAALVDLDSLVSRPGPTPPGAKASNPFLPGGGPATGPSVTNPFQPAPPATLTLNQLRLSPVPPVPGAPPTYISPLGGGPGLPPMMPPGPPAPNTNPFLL
Test: Inhibition of C-terminal 6xHis-tagged epsin-1 ENTH domain (unknown origin) expressed in Escherichia coli BL21(DE3) RIL assessed as inhibition of interaction with PtdIns(4,5)P2 at 100 uM after 15 mins by SPR analysis relative to control

| compound | inhibition |
| --- | --- |
| O=C(O)c1cc(P(=O)(O)O)n[nH]1 | 61% |
| CCOP(=O)(O)c1cc(C(=O)O)[nH]n1 | 57% |
| CC1(C(=O)O)CC([PH](=O)O)=NN1 (stereo not given) | 8% |
| COP(=O)(O)C1=NNC(C)(C(=O)O)C1 (stereo not given) | 8.3% |
| O=C1[C@@H]2C[C@@H]3CC[C@@]2(O3)[C@@H](P(=O)(O)O)N1Cc1ccccc1 | 13% |
